Attribute: koff
Target: T1, sIL-6R (soluble IL-6 receptor; SBH Sciences) (human, UniProt P08887 20-365)
T1 construct: also called human IL-6R
T1 sequence: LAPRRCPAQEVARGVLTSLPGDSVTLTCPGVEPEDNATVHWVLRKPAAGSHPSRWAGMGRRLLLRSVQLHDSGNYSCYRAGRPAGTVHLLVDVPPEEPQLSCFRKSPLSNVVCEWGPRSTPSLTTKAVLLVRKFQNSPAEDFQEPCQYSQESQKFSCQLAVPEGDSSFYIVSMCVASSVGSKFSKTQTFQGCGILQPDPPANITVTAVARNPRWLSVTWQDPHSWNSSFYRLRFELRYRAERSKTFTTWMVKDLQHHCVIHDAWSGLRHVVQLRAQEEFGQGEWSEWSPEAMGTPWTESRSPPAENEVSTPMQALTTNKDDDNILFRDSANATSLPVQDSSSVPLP
Assay: SPR (BIAcore 3000), antibody on chip, sIL-6R analyte, 25 C
Dear colleague, please return just the value in s⁻¹, with no unit written.

18# (antibody, human IgG1, kappa, V domains shown, also called Sample # 18) VH: QVQLQESGPGLVRPSQTLSLTCTVSGYSITSDHAWSWVRQPPGRGLEWIGFISYSGITTYNPSLKSRVTMLRDTSKNQFSLRLSSVTAADTAVYYCARCLARITAMDYWGQGSLVTVSS VL: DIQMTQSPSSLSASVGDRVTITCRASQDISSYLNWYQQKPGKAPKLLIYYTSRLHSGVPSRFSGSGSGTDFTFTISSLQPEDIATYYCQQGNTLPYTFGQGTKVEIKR
5.42e-05
11# (antibody, human IgG1, kappa, V domains shown, also called Sample # 11) VH: QVQLQESGPGLVRPSQTLSLTCTVSGYSITSDHAWSWVRQPPGRGLEWIGFISYSGITTYNPSLKSRVTMLRDTSKNQFSLRLSSVTAADTAVYYCARSLARATAMDYWGQGSLVTVSS VL: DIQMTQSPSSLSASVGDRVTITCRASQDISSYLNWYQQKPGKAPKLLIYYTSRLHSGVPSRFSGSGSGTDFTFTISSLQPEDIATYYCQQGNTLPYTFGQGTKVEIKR
3.08e-05
16# (antibody, human IgG1, kappa, V domains shown, also called Sample # 16) VH: QVQLQESGPGLVRPSQTLSLTCTVSGYSITSDHAWSWVRQPPGRGLEWIGFISYSGITTYNPSLKSRVTMLRDTSKNQFSLRLSSVTAADTAVYYCARSLARITAMDYWGQGSLVTVSS VL: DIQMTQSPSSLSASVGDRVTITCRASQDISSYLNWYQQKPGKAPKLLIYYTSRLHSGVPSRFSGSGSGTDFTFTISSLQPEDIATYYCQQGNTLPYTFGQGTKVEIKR
6.3e-05

QUERY: Identify koff associated with the binder 24# (antibody, human IgG1, kappa, V domains shown, also called Sample # 24) VH: QVQLQESGPGLVRPSQTLSLTCTVSGYSITSDHAWSWVRQPPGRGLEWIGYISYSGITTYNPSLKSRVTMLRDTSKNQFSLRLSSVTAADTAVYYCARCLARITAMDYWGQGSLVTVSS VL: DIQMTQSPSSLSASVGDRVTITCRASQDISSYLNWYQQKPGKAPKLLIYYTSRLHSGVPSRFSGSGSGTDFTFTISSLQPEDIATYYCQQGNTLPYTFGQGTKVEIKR
RESULT: 7.99e-05
